Here the recorded absorbance 490 nm/630 nm is given for each entry.
biological target: T1, Ala mutant SEQ ID NO: 29 (human); test: ELISA, peptide on plate (10 ug/mL)
T1 sequence (peptide): EEAMDDQWMQDEMEIGY
Reply with just the number (in OD).

Can you look up the measured absorbance 490 nm/630 nm of G6 (antibody, IgG1, V domains shown) VH: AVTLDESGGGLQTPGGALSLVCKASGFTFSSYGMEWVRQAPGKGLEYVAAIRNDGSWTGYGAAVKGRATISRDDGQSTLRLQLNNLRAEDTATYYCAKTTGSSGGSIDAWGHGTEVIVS VL: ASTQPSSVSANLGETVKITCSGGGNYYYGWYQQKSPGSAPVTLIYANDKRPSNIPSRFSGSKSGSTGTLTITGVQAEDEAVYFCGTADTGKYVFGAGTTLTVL for me?
1.95

Return reported absorbance 490 nm/630 nm; argument: A11 (antibody, IgG1, V domains shown) VH: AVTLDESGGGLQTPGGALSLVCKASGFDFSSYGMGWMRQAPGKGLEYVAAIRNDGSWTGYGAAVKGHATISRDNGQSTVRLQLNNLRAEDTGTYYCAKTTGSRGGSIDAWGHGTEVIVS VL: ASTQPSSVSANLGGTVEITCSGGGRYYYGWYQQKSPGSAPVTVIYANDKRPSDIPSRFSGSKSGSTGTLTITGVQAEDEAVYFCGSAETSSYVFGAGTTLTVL
2.05

Would you mind telling me what absorbance 490 nm/630 nm value was observed for G8 (antibody, IgG1, V domains shown) VH: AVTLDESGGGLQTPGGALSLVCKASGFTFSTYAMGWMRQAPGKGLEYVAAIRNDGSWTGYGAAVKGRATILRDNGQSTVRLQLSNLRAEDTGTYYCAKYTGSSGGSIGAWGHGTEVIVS VL: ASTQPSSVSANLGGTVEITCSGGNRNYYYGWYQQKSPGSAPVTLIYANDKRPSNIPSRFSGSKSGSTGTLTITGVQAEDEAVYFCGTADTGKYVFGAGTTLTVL ?
1.91

Origin of the recorded values: patent US20230192890A1
